Assay: Cytotox GC50
Format: cell-based
Listed below: Cytotox GC50 values for each entry.

{"columns": ["smi", "Cytotox GC50, µM"],
 "data": [
  ["CCCc1nc(C)c2c(=O)[nH]c(-c3cc(S(=O)(=O)N[C@H](C)C(=O)N(C)C)ccc3OCC)nn12", 100],
  ["CCCc1nc(C)c2c(=O)[nH]c(-c3cc(S(=O)(=O)N(C)[C@@H](C)C(=O)NC)ccc3OCC)nn12", 94.0],
  ["CCCc1nc(C)c2c(=O)[nH]c(-c3cc(S(=O)(=O)NC(C)(C)C(=O)N(C)C)ccc3OCC)nn12", 100],
  ["CCCc1nc(C)c2c(=O)[nH]c(-c3cc(S(=O)(=O)N(C)C(C)(C)C(=O)NC)ccc3OCC)nn12", 95.0],
  ["CCCc1nc(C)c2c(=O)[nH]c(-c3cc(S(=O)(=O)N(C)C4(C(=O)N(C)C)CC4)ccc3OCC)nn12", 100],
  ["CCCc1nc(C)c2c(=O)[nH]c(-c3cc(S(=O)(=O)N(C)C(C)(C)C(=O)N(C)C)ccc3OCC)nn12", 100],
  ["CCCc1nc(C)c2c(=O)[nH]c(-c3cc(S(=O)(=O)N(C)CC(=O)N(C)C)ccc3OCC)nn12", 76.7]
]}

###

Assay: Solubility
Assay type: physicochemical
Details: pH 7.4, aqueous buffer; read-out: Solubility pH 7.4
Measured solubility of individual entries
reportedMetric: solubility (µM)

{"columns": ["smi", "readoutQualifier", "dataValue"],
 "data": [
  ["CCCc1nc(C)c2c(=O)[nH]c(-c3cc(S(=O)(=O)N(C)CC(=O)N4CCOCC4)ccc3OCC)nn12", ">", 100],
  ["CCCc1nc(C)c2c(=O)[nH]c(-c3cc(S(=O)(=O)N(C)[C@@H](C)C(=O)NC)ccc3OCC)nn12", "=", 74.6],
  ["CCCc1nc(C)c2c(=O)[nH]c(-c3cc(S(=O)(=O)N(C)CC(=O)N(C)CCN(C)C)ccc3OCC)nn12", ">", 100],
  ["CCCc1nc(C)c2c(=O)[nH]c(-c3cc(S(=O)(=O)N[C@@H](C)C(=O)N(C)C)ccc3OCC)nn12", "=", 78.4]
]}

###

Assay: Solubility
Assay type: physicochemical
Conditions: pH 2.7, aqueous buffer; read-out: Solubility pH 2.7

{"columns": ["compound", "readoutQualifier", "solubility, µM"],
 "data": [
  ["CCCc1nc(C)c2c(=O)[nH]c(-c3cc(S(=O)(=O)N(C)CC(=O)N(C)CCN(C)C)ccc3OCC)nn12 [Compound 9]", ">", 100],
  ["CCCc1nc(C)c2c(=O)[nH]c(-c3cc(S(=O)(=O)N(CC)CC(=O)N(CC)CC)ccc3OCC)nn12 [Compound 10]", "=", 77.9],
  ["CCCc1nc(C)c2c(=O)[nH]c(-c3cc(S(=O)(=O)N(C)[C@@H](C)C(=O)N(C)C)ccc3OCC)nn12 [Compound 12]", "=", 96],
  ["CCCc1nc(C)c2c(=O)[nH]c(-c3cc(S(=O)(=O)N(C)[C@H](C)C(=O)NC)ccc3OCC)nn12 [Compound 14]", "=", 62.6],
  ["CCCc1nc(C)c2c(=O)[nH]c(-c3cc(S(=O)(=O)N(C)C(C)(C)C(=O)N(C)C)ccc3OCC)nn12 [Compound 3]", ">", 100],
  ["CCCc1nc(C)c2c(=O)[nH]c(-c3cc(S(=O)(=O)N[C@@H](C)C(=O)N(C)C)ccc3OCC)nn12 [Compound 17]", "=", 70],
  ["CCCc1nc(C)c2c(=O)[nH]c(-c3cc(S(=O)(=O)N(C)CC(=O)N4CCN(C)CC4)ccc3OCC)nn12 [Compound 7]", ">", 100]
]}
